Just for reference, patent US20240254204A1 is where these values come from.

I'd be grateful if you could share measured sVNT SARS-CoV-2 (% I) for these entries.
ASSAYED_SYSTEM: SARS-CoV-2 RBD (SARS-CoV-2)
EXPERIMENT: sVNT, cPass kit with SARS-CoV-2 RBD-HRP; HEK293 supernatant
Please give a number only; it is taken to be in %.

Exercise: GET /values?readout=sVNT SARS-CoV-2 (% I)&item= Antibody 1 (SS6V1-B5) (antibody, V domains shown) VH: EVQLVESGGGLVQPGGSLRLSCAASGFILRNYEMQWVRQAPGKGLEWVSVIGNTGGTFYAGSVKGRFTISRENAKNSLYLQMNSLRAEDTALYYCARVTYTSSPLPFWFLDLWGRGTLVTVSS VL: DIQMTQSPSSLSASVGDRVTITCRASQSIGNYLNWYQQKSGKAPKILIYAASSLQSGVPSRFSGSGSGTDFTLTISSLQPEDFATYYCQQTYRTPPEDSFGQGTKVEIK
Solution: 46.3

Exercise: GET /values?readout=sVNT SARS-CoV-2 (% I)&item= Antibody 10 (SS6V10-E1) (antibody, V domains shown) VH: EVQLVQSGAEVKKPGESLKISCQGSEDSFTGYWIGWVRQLPGKGLEWMGFIYPDDGDTRYSPAFQGLVTFSADKSITTAYLQWSSLKASDTAIYFCARHLGGGSSWPIDSWGQGTQVTVSS VL: DIQMTQSPSSLSASVGDRVTITCRASQGIRNYLAWFQQKPGKAPKSLIYAASSLQSGVPSKFSGSGYGTDFTLTINSLQPEDFATYYCQQYNNHPFTFGGGTKVEIK
Solution: 22.7

Exercise: GET /values?readout=sVNT SARS-CoV-2 (% I)&item= Antibody 6 (SS6V6-C4) (antibody, V domains shown) VH: EVQLVESGGGLVQPGGSLRLSCSASGFTFNTYAMHWVRQAPGKGPEYVSGISSNGGITDYADSVKGRFTISRDNSKNTLYLQMSSLRPEDTAVYYCVKDSLATVVTLLSYWGQGTLVTVSS VL: DIQMTQSPSSLSASVGDRVTITCRASQTISSYLNWFQQKPGKAPKLLIYAASSLQSGVPSRFSGSGSGTDFTLTISSLQPEDFAIYYCQQSYSTPGTFGQGTKVEIK
Solution: 31.7
